Target: monkey GPC3-His protein (monkey)
Test: ELISA, monkey GPC3-His coated; antibody 0.53 nM
measurement label: OD450 nm
// keep it numeric: no unit symbol after the value

{"columns": ["binder", "measurement label", "data value"],
 "data": [
  ["hAb006LH2L1a (antibody, human IgG1, V domains shown) VH: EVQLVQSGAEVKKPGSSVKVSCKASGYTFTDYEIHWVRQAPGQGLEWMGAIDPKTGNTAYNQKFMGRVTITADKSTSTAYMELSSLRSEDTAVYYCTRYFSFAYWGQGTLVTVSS VL: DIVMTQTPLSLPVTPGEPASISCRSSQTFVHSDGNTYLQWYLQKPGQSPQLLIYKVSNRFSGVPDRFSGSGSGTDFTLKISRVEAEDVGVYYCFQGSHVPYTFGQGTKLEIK", "OD450 nm", 0.549],
  ["hAb005LH2L1a (antibody, human IgG1, V domains shown) VH: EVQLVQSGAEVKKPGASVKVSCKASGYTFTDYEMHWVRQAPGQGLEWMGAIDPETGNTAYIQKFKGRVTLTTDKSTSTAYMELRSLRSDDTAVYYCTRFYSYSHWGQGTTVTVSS VL: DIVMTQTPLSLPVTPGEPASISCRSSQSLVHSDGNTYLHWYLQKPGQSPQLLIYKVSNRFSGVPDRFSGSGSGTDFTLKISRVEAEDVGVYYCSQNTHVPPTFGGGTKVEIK", "OD450 nm", 0.056]
]}

Now take the following binder into account.
q: What value of measured OD450 nm is listed for hAb006LH1L1b (antibody, human IgG1, V domains shown) VH: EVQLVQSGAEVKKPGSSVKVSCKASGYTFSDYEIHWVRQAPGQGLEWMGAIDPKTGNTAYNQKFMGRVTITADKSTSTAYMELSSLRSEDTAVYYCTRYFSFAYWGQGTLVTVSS VL: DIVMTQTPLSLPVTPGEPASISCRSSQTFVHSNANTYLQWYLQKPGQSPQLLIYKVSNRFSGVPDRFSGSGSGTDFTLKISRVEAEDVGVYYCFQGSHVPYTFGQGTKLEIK ?
a: 2.49
